Could you please report measured composite z-score for the items listed next?
tested on: Plasmodium falciparum Sir2 (PF13_0152, Sir2A); experiment: pfSir2 binders on small-molecule microarrays, primary screen, biochemical, small-molecule microarray, 635 nm fluorescence (AID 1098); conditions: small-molecule microarray binding, fluorescence 635 nm; higher = more signal;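 note: score merges spot fluorescence intensity with its signal-to-noise ratio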
Numbers only.

For the 4 compounds below, give their composite z-score values.
1. CC(C)CCN1CCc2nc(COc3ccccc3)c3c(c2C1)CO[C@@H](C)C3
2. Cc1ccc(S(=O)(=O)n2c3ccccc3c3nnc(C(=O)c4ccccc4)nc32)cc1
3. C=C(C)C(=O)OCC1CN2[C@@H](CC[C@@H](C)[C@@H]2c2ccc(Br)cc2)C(=O)O1 (stereo partly drawn)
4. O=C(NN=C1C[C@@H](O)[C@@H](O)[C@@H]2[C@@H]3C(=O)N(C[C@@H]4CCCO4)C(=O)[C@@H]3CC[C@H]12)OCc1ccccc1

1. 0.605
2. -0.0568
3. 0.299
4. 0.278

----------
test: MM1S cell viability effects, profiling panel, calcein-AM fluorescence, 48 h, basal (AID 1165); conditions: higher = more signal;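 note: viability of MM1S multiple myeloma cells under basal unstimulated conditions; test concentration not given here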
What z-score was measured for each of the following?
Give bare numbers.

Compound: C#CCCCON=C1C[C@@H](O)[C@@H](O)[C@@H]2[C@@H]3C(=O)N(c4cccc(Oc5ccccc5)c4)C(=O)[C@@H]3CC[C@H]12
Recorded endpoint: z-score
Numeric value: 0.632
--
Compound: COc1ccc(COC(=O)NN=C2C[C@@H](O)[C@@H](O)[C@@H]3[C@@H]4C(=O)N(c5ccc(F)cc5F)C(=O)[C@@H]4CC[C@H]23)cc1
Recorded endpoint: z-score
Numeric value: 0.698
--
Compound: C[C@@H](ON=C1[C@H]2CCn3c(=O)n(-c4ccccc4)c(=O)n3[C@H]2[C@H](O)[C@@H]2O[C@H]12)c1cn([C@@H]2COC[C@H]2O)nn1
Recorded endpoint: z-score
Numeric value: -0.289
--
Compound: C#CCCCON=C1C[C@@H](O)[C@@H](O)[C@@H]2[C@@H]3C(=O)N(CC)C(=O)[C@@H]3CC[C@@H]12
Recorded endpoint: z-score
Numeric value: 0.0133
--
Compound: CSCC[C@@H]1NC(=O)CC=C[C@@H](C)COC(=O)[C@@H](C)COC1=O
Recorded endpoint: z-score
Numeric value: 0.269
--
Compound: CCOC(=O)[C@H](CC(C)C)NC(=O)CCC1CC(OC(=O)NCc2cccc3ccccc23)CC2(CCCC(COC(=O)NCc3cccc(C(F)(F)F)c3)O2)O1 (some centres not stated)
Recorded endpoint: z-score
Numeric value: 0.484

Bench note: what z-score did CCOC(=O)[C@H](Cc1ccccc1)NC(=O)CCC1CC(OC(=O)NCc2ccc3c(c2)OCO3)CC2(CCCC(COC(=O)NCCC(C)C)O2)O1 (some centres not stated) show? -3.41

----------
test: small-molecule microarray binders of probe aLefty2, primary screen, biochemical, biotinylated probe, 635/667 nm fluorescence (AID 1094); details: higher = more signal;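 note: score merges spot fluorescence near 667 nm with spot signal-to-noise ratio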
Assign class by composite z-score: not lower than -0.004 means t; lower than -0.004 means f.

Molecule: C=CC[C@@H]1C=C[C@H](ON=C(C)CCC(=O)OC[C@H]2O[C@H](c3ccccc3)C=C[C@@H]2Oc2ccc(OC)cc2)[C@@H](CO)O1
Label: f

In plain terms: is recorded composite z-score at least -0.004 for CO[C@H]1COC(=O)CC=C[C@@H](C)[C@H](OC)COC(=O)CCC[C@@H]1C ? f

// query: CCOC(=O)[C@H](CC(C)C)NC(=O)CCC1CC(OC(=O)NCCc2ccc(F)cc2)CC2(CCCC(COC(=O)NCCc3ccc(Cl)cc3)O2)O1 (stereo not given in full) t

Sourced from PubChem BioAssay
